Test system: PA-1
PROCEDURE_DETAILS: Cytotoxic activity against Homo sapiens (human) PA1 cells incubated for 4 hr followed by compound wash-out measured after doubling time by MTT assay
Format: functional, cell-based
MEASUREMENT_CONDITIONS: Homo sapiens, PA-1, 4 h; read-out: IC50
Provide the reported IC50 of each item.
Give the quantity in µg/mL, number only.

"CCCCCCCCCCCCCC(=O)OC[C@H]1O[C@@H](O[C@@H]2OC=C(C(=O)OC)[C@H]3C[C@H](OC(C)=O)[C@H](C)[C@@H]23)[C@H](OC(C)=O)[C@@H](OC(C)=O)[C@@H]1OC(C)=O" yielded IC50 of 6.5

"CCCCCCCCCCCC(=O)OC[C@H]1O[C@@H](O[C@@H]2OC=C(C(=O)OC)[C@H]3C[C@H](OC(C)=O)[C@H](C)[C@@H]23)[C@H](OC(C)=O)[C@@H](OC(C)=O)[C@@H]1OC(C)=O" yielded IC50 of 0.15

"COC(=O)C1=CO[C@@H](O[C@@H]2O[C@H](CO)[C@@H](O)[C@H](O)[C@H]2O)[C@@H]2[C@@H](C)[C@@H](O)C[C@H]12" yielded IC50 of 1.45

"COC(=O)C1=CO[C@@H](O[C@@H]2O[C@H](COC(=O)c3cc(OC)c(OC)c(OC)c3)[C@@H](OC(C)=O)[C@H](OC(C)=O)[C@H]2OC(C)=O)[C@@H]2[C@@H](C)[C@@H](OC(C)=O)C[C@H]12" yielded IC50 of 0.1

----------
System: Bacopa monnieri
PROCEDURE_DETAILS: Toxicity against Bacopa monnieri assessed as number of leaves at 50 ug/ml after 15 days by Bacopa sensor test (reference value: 6)
Type: organism-based
MEASUREMENT_CONDITIONS: in vivo, 360 h
PROPERTY_LABEL: Activity
# print the numeric value only

"CC[C@]1(O)C[C@@H]2CN(CCc3c([nH]c4ccccc34)[C@@](C(=O)OC)(c3cc4c(cc3OC)N(C)[C@H]3[C@@](O)(C(=O)OC)[C@H](OC(C)=O)[C@]5(CC)C=CCN6CC[C@]43[C@@H]65)C2)C1" yielded Activity of 6

"COC(=O)C1=CO[C@@H](O[C@@H]2O[C@H](COC(=O)C=C(C)C)[C@@H](OC(C)=O)[C@H](OC(C)=O)[C@H]2OC(C)=O)[C@@H]2[C@@H](C)[C@@H](OC(C)=O)C[C@H]12" yielded Activity of 6

"COC(=O)C1=CO[C@@H](O[C@@H]2O[C@H](COC(=O)c3cc(OC)c(OC)c(OC)c3)[C@@H](OC(C)=O)[C@H](OC(C)=O)[C@H]2OC(C)=O)[C@@H]2[C@@H](C)[C@@H](OC(C)=O)C[C@H]12" yielded Activity of 4

"CCC(=O)OC[C@H]1O[C@@H](O[C@@H]2OC=C(C(=O)OC)[C@H]3C[C@H](OC(C)=O)[C@H](C)[C@@H]23)[C@H](OC(C)=O)[C@@H](OC(C)=O)[C@@H]1OC(C)=O" yielded Activity of 4

"COC(=O)C1=CO[C@@H](O[C@@H]2O[C@H](CO)[C@@H](O)[C@H](O)[C@H]2O)[C@@H]2[C@@H](C)[C@@H](O)C[C@H]12" yielded Activity of 6

"COC(=O)C1=CO[C@@H](O[C@@H]2O[C@H](COC(c3ccccc3)(c3ccccc3)c3ccccc3)[C@@H](O)[C@H](O)[C@H]2O)[C@@H]2[C@@H](C)[C@@H](O)C[C@H]12" yielded Activity of 6
